- TARGET DESC: P. falciparum apicoplast DNA polymerase (Pf-apPOL) (Plasmodium falciparum, UniProt Q8ILY1)
- Sequence (Q8ILY1 entry or part of it): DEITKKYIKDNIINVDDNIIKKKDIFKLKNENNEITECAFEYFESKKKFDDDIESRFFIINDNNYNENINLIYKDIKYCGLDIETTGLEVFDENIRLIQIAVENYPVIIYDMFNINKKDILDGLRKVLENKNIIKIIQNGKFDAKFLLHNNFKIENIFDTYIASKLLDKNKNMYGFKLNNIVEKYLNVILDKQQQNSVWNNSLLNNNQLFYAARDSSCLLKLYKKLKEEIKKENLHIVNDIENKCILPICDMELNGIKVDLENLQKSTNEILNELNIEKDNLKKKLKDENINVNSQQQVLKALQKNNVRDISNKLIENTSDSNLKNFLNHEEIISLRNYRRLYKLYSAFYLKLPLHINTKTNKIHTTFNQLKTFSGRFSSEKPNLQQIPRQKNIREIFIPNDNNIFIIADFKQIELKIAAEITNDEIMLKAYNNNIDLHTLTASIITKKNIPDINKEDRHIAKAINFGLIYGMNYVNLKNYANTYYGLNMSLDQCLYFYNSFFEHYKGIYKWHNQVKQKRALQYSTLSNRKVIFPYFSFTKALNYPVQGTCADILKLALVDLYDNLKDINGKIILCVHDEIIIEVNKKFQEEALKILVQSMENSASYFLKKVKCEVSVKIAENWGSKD
- TEST: Fluorescence-based high-throughput DNA polymerase assay (molecular beacon), primary screen and dose-response
- Format: biochemical
- SETTINGS: supplemental file 2, sheet IC50 nontoxic compounds; Pf-apPOL
Could you please mark class 1 for values of IC50 below 8 µM and class 0 for values at or above it?

A record lists O=c1cc(CN2CCCCC2)c2cc3c(cc2o1)OCO3 [Molecule 56] . Is its IC50 below 8 µM?
class 0

A record lists COc1ccc2c(c1)C(c1ccccc1OC)CC(=O)O2 (stereo not shown) [Molecule 38] . Is its IC50 below 8 µM?
class 0

A record lists COc1ccc(NC(=O)Cn2ccc3c(=O)[nH]ccc32)cc1Cl [Molecule 10] . Is its IC50 below 8 µM?
class 1

A record lists O=C(Cn1ccc2c(=O)[nH]ccc21)Nc1cc(F)ccc1F [Molecule 42] . Is its IC50 below 8 µM?
class 0

A record lists Cc1cccc(NC(=O)Cn2ccc3c(=O)[nH]ccc32)c1C [Molecule 11] . Is its IC50 below 8 µM?
class 1

A record lists Cn1nc(-c2nnc(-c3ccccc3F)o2)c2c1CCN(C(=O)c1ccccc1Cl)C2 [Molecule 34] . Is its IC50 below 8 µM?
class 1

A record lists Cn1nc(-c2nc(-c3ccccc3)no2)c2c1CCN(C(=O)Cc1cccs1)C2 [Molecule 58] . Is its IC50 below 8 µM?
class 0

A record lists O=C(Cn1ccc2c(=O)[nH]ccc21)Nc1ccccc1Cl [Molecule 19] . Is its IC50 below 8 µM?
class 1

A record lists O=C1N=C(Nc2cccc(Cl)c2Cl)S/C1=C\c1ccco1 [Molecule 3] . Is its IC50 below 8 µM?
class 1

A record lists Cc1cccc(CC(=O)N2CCc3c(nc4cc(-c5ccccc5)[nH]n4c3=O)C2)c1 [Molecule 12] . Is its IC50 below 8 µM?
class 1

A record lists CCCCCCCCCCCC1SCC(C(=O)O)N1C(C)=O (stereo not shown) [Molecule 72] . Is its IC50 below 8 µM?
class 0

A record lists O=C1CSC2=NC3=C(CCc4ccccc43)C(c3cccs3)N12 (stereo not shown) [Molecule 59] . Is its IC50 below 8 µM?
class 0

A record lists Cc1ccc(CNC(=O)c2cnn3c(O)cc(CSc4ccc(Cl)cc4)nc23)cc1 [Molecule 99] . Is its IC50 below 8 µM?
class 0

A record lists N#CC(C#N)=C1SCN(c2cccc(Cl)c2)CS1 [Molecule 29] . Is its IC50 below 8 µM?
class 0

A record lists CCOc1cccc2cc(C(=O)Nc3nnc(-c4ccno4)o3)oc12 [Molecule 28] . Is its IC50 below 8 µM?
class 1

A record lists O=C(NNC(=O)C(F)(F)Sc1ccccc1)c1ccsc1 [Molecule 68] . Is its IC50 below 8 µM?
class 0

A record lists O=C(Nc1cccc(C(=O)Nc2ccc(S(=O)(=O)[O-])c3cc(S(=O)(=O)[O-])cc(S(=O)(=O)[O-])c23)c1)Nc1cccc(C(=O)Nc2ccc(S(=O)(=O)[O-])c3cc(S(=O)(=O)[O-])cc(S(=O)(=O)[O-])c23)c1.[Na+].[Na+].[Na+].[Na+].[Na+].[Na+] [Molecule 39] . Is its IC50 below 8 µM?
class 1

A record lists CCN1C(=O)C(=Cc2cccc(OC)c2O)SC1=S [Molecule 78] . Is its IC50 below 8 µM?
class 0

A record lists Cc1cc2[nH]c(C(=O)Nc3ccc(F)cc3)c(CN3CCOCC3)c2s1 [Molecule 60] . Is its IC50 below 8 µM?
class 0
